biological target: UniProt:P04585; assay: biochemical; conditions: read-out: Inhibition of strand transfer (IC50)
metric: pIC50
The value called pIC50 is obtained by taking minus log10 of the concentration in mol/L.

Example entries begin here.
compound	pIC50
O=C(Nc1ccc2c(O)c(N=Nc3ccccc3)c(S(=O)(=O)O)cc2c1)C(=O)Nc1ccc2c(O)c(N=Nc3ccccc3)c(S(=O)(=O)O)cc2c1 [Compound 106]	6.40
CC(=O)Nc1ccc(N=Nc2c(S(=O)(=O)O)cc3cc(NC(=O)Nc4ccc5c(O)c(N=Nc6ccc(NC(C)=O)cc6)c(S(=O)(=O)O)cc5c4)ccc3c2O)cc1 [Compound 72]	6.30
O=C(O)CC(C(=O)O)c1ccc(N=Nc2c(S(=O)(=O)O)cc3cc(NC(=O)Nc4ccc5c(O)c(N=Nc6ccc(C(CC(=O)O)C(=O)O)cc6)c(S(=O)(=O)O)cc5c4)ccc3c2O)cc1 (centres unmarked) [Compound 33]	6.22
O=C(Nc1ccc2c(O)c(N=Nc3ccc(C(=O)O)cc3)c(S(=O)(=O)O)cc2c1)Nc1ccc2c(O)c(N=Nc3ccc(C(=O)O)cc3)c(S(=O)(=O)O)cc2c1 [Compound 31]	6.15
O=C(Nc1ccc2c(O)c(N=Nc3cccc(C(=O)O)c3)c(S(=O)(=O)O)cc2c1)Nc1ccc2c(O)c(N=Nc3cccc(C(=O)O)c3)c(S(=O)(=O)O)cc2c1 [Compound 58]	6.22
COc1cc(N=Nc2c(S(=O)(=O)O)cc3cc(NC(=O)C(=O)Nc4ccc5c(O)c(N=Nc6cc(OC)c(OC)c(OC)c6)c(S(=O)(=O)O)cc5c4)ccc3c2O)cc(OC)c1OC [Compound 110]	6.40

Moving on to the next compound.
Problem: Kindly indicate its recorded pIC50. Item: COc1cc(C(=O)O)ccc1N=Nc1c(S(=O)(=O)O)cc2cc(NC(=O)Nc3ccc4c(O)c(N=Nc5ccc(C(=O)O)cc5OC)c(S(=O)(=O)O)cc4c3)ccc2c1O [Compound 54]
Result: 5.70

====

target: HIV integrase (Human immunodeficiency virus type 1 group M subtype B, UniProt P04585); test: biochemical; details: read-out: Inhibition of 3' processing activity (IC50)
# IC50 values compiled below
Record the value in nM, omitting the unit from your answer.

Example entries begin here.
compound	assayed-system	IC50, nM
Cc1cc(C(=O)O)ccc1N=Nc1c(S(=O)(=O)O)cc2cc(NC(=O)Nc3ccc4c(O)c(N=Nc5ccc(C(=O)O)cc5C)c(S(=O)(=O)O)cc4c3)ccc2c1O	HIV integrase (Human immunodeficiency virus type 1 group M subtype B, UniProt P04585)	500
O=C(O)CCc1ccc(N=Nc2c(S(=O)(=O)O)cc3cc(NC(=O)C(=O)Nc4ccc5c(O)c(N=Nc6ccc(CCC(=O)O)cc6)c(S(=O)(=O)O)cc5c4)ccc3c2O)cc1	HIV integrase (Human immunodeficiency virus type 1 group M subtype B, UniProt P04585)	1000
C=Cc1ccc(N=Nc2c(S(=O)(=O)O)cc3cc(NC(=O)Nc4ccc5c(O)c(N=Nc6ccc(C=C)cc6)c(S(=O)(=O)O)cc5c4)ccc3c2O)cc1	HIV integrase (Human immunodeficiency virus type 1 group M subtype B, UniProt P04585)	2000

Moving on to the next compound.
Problem: Kindly indicate its recorded IC50. Item: O=C(O)CC(C(=O)O)c1ccc(N=Nc2c(S(=O)(=O)O)cc3cc(NC(=O)Nc4ccc5c(O)c(N=Nc6ccc(C(CC(=O)O)C(=O)O)cc6)c(S(=O)(=O)O)cc5c4)ccc3c2O)cc1 (centres unmarked)
Result: 300
